# protocol: qHTS assay to identify small molecule antagonists of the progesterone receptor (PR) signaling pathway - cell viability counter screen (AID 1346798); note: nearly all actives have a fitted effect of over 50% in size; note: potency is the fitted concentration of half-maximal effect
# condition: PR-UAS-bla HEK293T viability, CellTiter-Glo luminescence, 16 h; series mostly up to 92.4 µM
Inconclusive results are not listed. The source made the active and inactive calls. Calls come from the whole dose curve; as a rule, active = well fitted cell-killing curve with a large enough effect in the repeat runs; inconclusive = weak or mixed curves, or effect the other way; inactive = no such curve, though single readings can be large or run the other way.
readout name: Potency

[
  {
    "compound": "COc1cccc2c1C(=O)c1c(O)c3c(c(O)c1C2=O)C[C@@](O)(C(=O)CO)C[C@@H]3O[C@H]1C[C@H](N)[C@H](O[C@@H]2CCCCO2)[C@H](C)O1",
    "readout name": "Potency",
    "recorded measurement": "inactive"
  },
  {
    "compound": "Cc1nc(-c2ccc3c(c2)CCN(CCC2CCC(NC(=O)/C=C/c4ccc(F)cc4)CC2)CC3)no1 (stereo not given)",
    "readout name": "Potency",
    "recorded measurement": "inactive"
  },
  {
    "compound": "O=C(O)c1c(Cl)cccc1Cl",
    "readout name": "Potency",
    "recorded measurement": "inactive"
  },
  {
    "compound": "CC1=C(/C=C/C(C)=C/C=C/C(C)=C/C=O)C(C)(C)CCC1",
    "readout name": "Potency",
    "recorded measurement": "68.2 µM (active)"
  },
  {
    "compound": "Oc1ccc(Cl)cc1Sc1cc(Cl)ccc1O",
    "readout name": "Potency",
    "recorded measurement": "54.4 µM (active)"
  }
]
